Consider molecules characterized by their Ki with Metabotropic glutamate receptor 8 (Rattus norvegicus).
Sequence (P70579 whole entry): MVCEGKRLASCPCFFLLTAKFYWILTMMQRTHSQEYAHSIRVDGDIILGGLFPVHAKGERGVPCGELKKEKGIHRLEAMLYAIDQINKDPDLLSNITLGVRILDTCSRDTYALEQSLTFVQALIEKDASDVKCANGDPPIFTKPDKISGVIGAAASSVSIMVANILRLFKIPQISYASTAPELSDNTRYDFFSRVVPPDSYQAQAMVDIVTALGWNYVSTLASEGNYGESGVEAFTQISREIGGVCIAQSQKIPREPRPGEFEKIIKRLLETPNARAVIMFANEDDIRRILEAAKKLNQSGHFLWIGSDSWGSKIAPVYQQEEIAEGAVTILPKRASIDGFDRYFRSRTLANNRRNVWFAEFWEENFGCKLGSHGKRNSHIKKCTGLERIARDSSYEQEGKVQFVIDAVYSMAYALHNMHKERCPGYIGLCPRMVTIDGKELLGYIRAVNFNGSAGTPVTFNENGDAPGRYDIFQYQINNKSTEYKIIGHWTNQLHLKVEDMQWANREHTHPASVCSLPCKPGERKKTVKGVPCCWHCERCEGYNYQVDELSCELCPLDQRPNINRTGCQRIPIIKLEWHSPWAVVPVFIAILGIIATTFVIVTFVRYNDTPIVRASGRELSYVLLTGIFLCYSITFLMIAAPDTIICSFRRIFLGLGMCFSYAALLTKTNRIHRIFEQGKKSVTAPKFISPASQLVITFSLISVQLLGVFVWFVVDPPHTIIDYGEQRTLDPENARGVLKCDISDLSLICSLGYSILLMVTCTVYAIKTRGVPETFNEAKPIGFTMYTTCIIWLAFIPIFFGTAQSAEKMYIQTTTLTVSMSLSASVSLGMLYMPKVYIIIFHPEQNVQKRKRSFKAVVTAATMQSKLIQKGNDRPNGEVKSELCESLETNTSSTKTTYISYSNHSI

Solved entries (count: 3):
{"columns": ["Molecule", "Data value"],
 "data": [
  ["N[C@H](CCP(=O)(O)O)C(=O)O", "> 10 µM"],
  ["N[C@@H](CCP(=O)(O)O)C(=O)O", "2.7 µM"],
  ["N[C@@H](COP(=O)(O)O)C(=O)O", "1.2 µM"]
]}

Consider the record given below.
Query (molecule): NC(CCC(=O)O)C(=O)O (centres undefined) ; field requested: Ki > 10 µM

Source listed as BindingDB's records for doi:10.1016/s0028-3908(00)00128-3.
